Molecular target: HEDG-7 receptor (Homo sapiens, UniProt O95977, A140V/I378S)
Construct: it was desirable to isolate a full-length cDNA clone from a human source; expressed in transfected cells; host or cells: 293-EBNA cells (Invitrogen, Cat. R620-07), transiently transfected with pc3-hedg7#M10 (pcDNA3.1) and a 2x SRE-luciferase reporter
Sequence (O95977 1-384 A140V/I378S): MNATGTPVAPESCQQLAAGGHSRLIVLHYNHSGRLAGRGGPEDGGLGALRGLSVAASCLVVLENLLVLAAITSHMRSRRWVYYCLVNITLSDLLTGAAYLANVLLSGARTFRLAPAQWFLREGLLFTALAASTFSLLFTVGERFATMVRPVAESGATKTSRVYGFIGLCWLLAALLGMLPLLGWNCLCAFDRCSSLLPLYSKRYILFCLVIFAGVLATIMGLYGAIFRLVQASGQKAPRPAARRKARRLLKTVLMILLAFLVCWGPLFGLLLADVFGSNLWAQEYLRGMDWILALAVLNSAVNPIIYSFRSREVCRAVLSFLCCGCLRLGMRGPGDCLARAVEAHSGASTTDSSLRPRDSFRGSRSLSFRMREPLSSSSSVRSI
Assay: SRE-luciferase reporter gene response in 293-EBNA cells transfected with pc3-hedg7#M10
Format: cell-based
Conditions: maximal luciferase fold response after subtracting endogenous response in pcDNA3-transfected cells; 6 hr treatment
measured_endpoint: Max. Fold (Fold)
Answers are plain numbers, in Fold.

Please review the following examples before continuing.
{"compound": "CCCCCCCCCCCCC/C=C/[C@@H](O)C(N)CO[C@@H]1O[C@H](CO)[C@@H](O)[C@H](O)[C@@H]1O (stereo partly shown) [Glucospychosine, glucopsychosine]", "reading": 1.00}
{"compound": "CCCCCCCCCCCCC/C=C/[C@@H](O)[C@@H](N)CO[C@@H]1O[C@H](CO)[C@H](O)[C@H](O)[C@H]1O [Psychosine, psychosine]", "reading": 1.00}
{"compound": "CCCCCCCCCCCCC/C=C/[C@@H](O)[C@@H](N)COP(=O)([O-])OCC[N+](C)(C)C [SPC]", "reading": 3.59}

Moving on to another compound below.
Query: Request the reported Max. Fold associated with CCCCCCCCCCCCC/C=C/[C@@H](O)[C@@H](N)COP(=O)(O)O [S1P]
Result: 3.59

###

Molecular target: HEDG-7 receptor (Homo sapiens, UniProt O95977, A140V/I378S)
Construct: it was desirable to isolate a full-length cDNA clone from a human source; expressed in transfected cells; host or cells: 293-EBNA cells (Invitrogen, Cat. R620-07), transiently transfected with pc3-hedg7#M10 (pcDNA3.1) and a 2x SRE-luciferase reporter
Experiment: SRE-luciferase reporter gene response in 293-EBNA cells transfected with pc3-hedg7#M10
Type: cell-based
Details: relative efficacy; 293-EBNA cells transfected with pc3-hedg7#M10; 6 hr treatment
Method: Miniprep DNA from 4 clones was tested by cotransfection into 293-EBNA cells (Invitrogen, Cat. R620-07) with a 2× SRE-Luciferase reporter gene constructed in-house. We previously determined that these cells are an ideal expression host for edg receptors that respond to sphingolipids, since only a single edg gene is expressed (the LPA receptor subtype […], see U.S. Ser. No. 08/997,803), under normal culture conditions. […]
Answer each item with its documented EMax (Percent).
Give bare numbers, in %.

Please review the following examples before continuing.
{"molecule": "CCCCCCCCCCCCC/C=C/[C@@H](O)[C@@H](N)CO[C@@H]1O[C@H](CO)[C@H](O)[C@H](O)[C@H]1O", "EMax (Percent) [%]": 0}
{"molecule": "CCCCCCCCCCCCC/C=C/[C@@H](O)[C@@H](N)COP(=O)(O)O", "EMax (Percent) [%]": 100}
{"molecule": "CCCCCCCCCCCCC/C=C/[C@@H](O)C(N)CO[C@@H]1O[C@H](CO)[C@@H](O)[C@H](O)[C@@H]1O (stereo partly shown)", "EMax (Percent) [%]": 0}

Moving on to another molecule below.
Query: Request the reported EMax (Percent) associated with CCCCCCCCCCCCC/C=C/[C@@H](O)[C@@H](N)COP(=O)([O-])OCC[N+](C)(C)C
Result: 100

###

Target: HEDG-7 receptor (Homo sapiens, UniProt O95977, A140V/I378S)
Construct: it was desirable to isolate a full-length cDNA clone from a human source; expressed in transfected cells; host or cells: 293-EBNA cells (Invitrogen, Cat. R620-07), transiently transfected with pc3-hedg7#M10 (pcDNA3.1) and a 2x SRE-luciferase reporter
Sequence (O95977 1-384 A140V/I378S): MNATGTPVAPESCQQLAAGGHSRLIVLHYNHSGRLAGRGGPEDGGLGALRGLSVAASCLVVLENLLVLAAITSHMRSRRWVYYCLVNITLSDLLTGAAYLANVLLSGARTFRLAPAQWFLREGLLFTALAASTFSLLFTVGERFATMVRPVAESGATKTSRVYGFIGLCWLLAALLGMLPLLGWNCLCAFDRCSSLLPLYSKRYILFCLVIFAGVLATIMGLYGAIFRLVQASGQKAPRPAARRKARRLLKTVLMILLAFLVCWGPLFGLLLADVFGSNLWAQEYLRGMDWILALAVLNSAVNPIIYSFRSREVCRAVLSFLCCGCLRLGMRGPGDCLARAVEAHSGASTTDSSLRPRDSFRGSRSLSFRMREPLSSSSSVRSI
Test: SRE-luciferase reporter gene response in 293-EBNA cells transfected with pc3-hedg7#M10
Type: cell-based
Conditions: various concentrations, 6 hr treatment; 293-EBNA cells transfected with pc3-hedg7#M10
measured_endpoint: HEDG7 activation (conclusion from dose response)

{"substance_smiles": "CCCCCCCCCCCCC/C=C/[C@@H](O)[C@@H](N)COP(=O)(O)O", "reading": "full agonists"}
{"substance_smiles": "CCCCCCCCCCCCC/C=C/[C@@H](O)[C@@H](N)COP(=O)([O-])OCC[N+](C)(C)C", "reading": "full agonists"}

###

target: HEDG-7 receptor (Homo sapiens, UniProt O95977, A140V/I378S); construct: it was desirable to isolate a full-length cDNA clone from a human source; expressed in transfected cells; host or cells: 293-EBNA cells (Invitrogen, Cat. R620-07), transiently transfected with pc3-hedg7#M10 (pcDNA3.1) and a 2x SRE-luciferase reporter; assay: SRE-luciferase reporter gene response in 293-EBNA cells transfected with pc3-hedg7#M10; assay type: cell-based; details: summary statement in the description

{"substance_smiles": "CCCCCCCCCCCCC/C=C/[C@@H](O)[C@@H](N)COP(=O)([O-])OCC[N+](C)(C)C", "HEDG-7 agonist activity": "agonists for HEDG-7"}
{"substance_smiles": "CCCCCCCCCCCCC/C=C/[C@@H](O)[C@@H](N)COP(=O)(O)O", "HEDG-7 agonist activity": "agonists for HEDG-7"}

Attribution: patent US6566096B2
